Where these numbers come from: PubChem BioAssay

Listing: composite z-score of selected compounds
test system: wheat germ agglutinin (Triticum aestivum), Alexa647-labelled; test: wheat germ agglutinin binders on compound microarrays, profiling panel, artefact control for SMM control-protein annotation, biochemical, small-molecule microarray, 635/667 nm fluorescence (AID 1140); settings: WGA-A647 binding, 635 nm fluorescence, higher = more signal;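 also: score merges 667 nm feature emission with signal to noise over triplicate slides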

compound=O=C1C[C@@H](O)[C@@H](O)[C@@H]2[C@@H]3C(=O)N(C4CCCCC4)C(=O)[C@@H]3CC[C@@H]12 recorded_result=0.282
compound=CC[C@@H](c1ccccc1)n1c(=O)n2n(c1=O)[C@H]1[C@H](O)[C@@H]3O[C@@H]3C(=NOCc3ccccc3)[C@H]1CC2 recorded_result=0.676
compound="CCOC(=O)[C@H](Cc1ccccc1)NC(=O)CCC1CC(OC(=O)NCCc2ccc(F)cc2)CC2(CCCC(COC(=O)NCCC(C)C)O2)O1 (stereo not given in full)" recorded_result=0.381
compound=CCOC(=O)CCN1C(=O)[C@H]2[C@H]3[C@H](O)[C@H](O)CC(=NNC(=O)OCc4ccc(OC)cc4)[C@H]3CC[C@H]2C1=O recorded_result=0.282

Prompt: Can you look up the measured composite z-score of CC(C)CN1CCc2nc(-c3ccccc3)c3c(c2C1)CO[C@@H](C)C3 for me?
Response: 0.963

Prompt: Can you look up the measured composite z-score of CCOC(=O)CCN1C(=O)[C@H]2[C@H]3[C@H](O)[C@H](O)CC(=NOCC(C)C)[C@@H]3CC[C@H]2C1=O for me?
Response: 0.0456

Prompt: Can you look up the measured composite z-score of CC(C)(C)N1C(=O)[C@H]2[C@H]3[C@H](O)[C@H](O)CC(=NNC(=O)OCc4ccccc4)[C@@H]3CC[C@H]2C1=O for me?
Response: 0.433

Prompt: Can you look up the measured composite z-score of COc1ccc(-c2cnnc(CCCn3ccnc3-c3ccccc3)n2)cc1 for me?
Response: 0.138

Prompt: Can you look up the measured composite z-score of CON=C1c2cc(OC)ccc2O[C@H](c2cccc(OC)c2)[C@H]1O for me?
Response: 0.208

====

Listing: composite z-score of selected compounds
test: binders from COS7 lysate, DM2A8 probe, primary screen, torsin A project, cell lysate, small-molecule microarray, fluorescence 635/667 (AID 1065); conditions: higher = more signal, COS7 lysate expressing mutant human TOR1A
Answer with a bare number; do not write a unit.

A selection of reference data follows.
compound=CCOC(=O)CCN1C(=O)[C@H]2[C@H]3[C@H](O)[C@H](O)CC(=NNC(=O)OCC)[C@H]3CC[C@H]2C1=O recorded_result=0.345
compound=CON=C(C)CCN1CCCCc2nc(C)c(C)cc21 recorded_result=1.01
compound=CO[C@@H]1C=CCC(=O)N[C@@H](C)C(=O)OC[C@@H](OC)[C@H](C)C=CCC(=O)OC[C@H]1C recorded_result=2.23

Prompt: Can you look up the measured composite z-score of CC(C)(C)N1C(=O)[C@H]2[C@H]3[C@H](O)[C@H](O)CC(=NOC[C@@H](O)COCc4ccco4)[C@@H]3CC[C@H]2C1=O for me?
Response: 0.152

Prompt: Can you look up the measured composite z-score of O=C1C2=CC[C@H]3C(=O)N(C4CCCCC4)C(=O)[C@H]3[C@H]2[C@H](O)[C@@H]2O[C@H]12 for me?
Response: -2.14

Prompt: Can you look up the measured composite z-score of CCOC(=O)[C@H](Cc1ccccc1)NC(=O)CCC1CC(OC(=O)NCCc2ccc(F)cc2)CC2(CCCC(COC(=O)NCCC(C)C)O2)O1 (stereo not given in full) for me?
Response: 0.813

Prompt: Can you look up the measured composite z-score of COC(=O)[C@H](C)NC(=O)CCC1CC(OC(=O)NCCc2ccc(F)cc2)CC2(CCCC(COC(=O)NCCOc3ccccc3)O2)O1 (stereo not given in full) for me?
Response: 0.269

Prompt: Can you look up the measured composite z-score of CC(C)[C@@H](OCc1ccccc1)[C@H](C)C=NO[C@@H](C)c1cn([C@H](CO)Cc2ccccc2)nn1 for me?
Response: 0.384

Prompt: Can you look up the measured composite z-score of C=CC[C@@H]1C=C[C@H](ON=CC[C@@H]2C=C[C@H](OC(C)=O)[C@@H](COC(C)=O)O2)[C@@H](CO)O1 for me?
Response: 0.52

Prompt: Can you look up the measured composite z-score of C[C@@H]1C=CCC(=O)OC[C@H](C)C(=O)N[C@@H](Cc2ccccc2)C(=O)OC1 for me?
Response: 1.31

Prompt: Can you look up the measured composite z-score of CCOC(=O)[C@H](CC(C)C)NC(=O)CCC1CC(OC(=O)NCc2ccc3c(c2)OCO3)CC2(CCCC(COC(=O)NCCOC)O2)O1 (stereo not given in full) for me?
Response: -0.224

Prompt: Can you look up the measured composite z-score of CCN1C(=O)[C@H]2[C@H]3[C@H](O)[C@H](O)CC(=NO[C@H](C)c4cn([C@H](CO)Cc5ccccc5)nn4)[C@@H]3CC[C@H]2C1=O for me?
Response: 0.0378

Prompt: Can you look up the measured composite z-score of C[C@@H](c1ccccc1)N1C(=O)[C@H]2[C@H]3[C@H](O)[C@H](O)CC(=NOC[C@@H](O)COCc4ccco4)[C@H]3CC[C@H]2C1=O for me?
Response: 2.38

Prompt: Can you look up the measured composite z-score of C#CCCCON=C1C[C@@H](O)[C@@H](O)[C@@H]2[C@@H]3C(=O)N(CC)C(=O)[C@@H]3CC[C@H]12 for me?
Response: 0.368

Prompt: Can you look up the measured composite z-score of CC(=O)OC[C@H]1O[C@H](CC=NOCC[C@@H]2C=C[C@H](OC(C)=O)[C@@H](COC(C)=O)O2)C=C[C@@H]1OC(C)=O for me?
Response: 1.16
